- Target Under Test: human ether-à-go-go-related gene (hERG) potassium channel (human, UniProt Q12809);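 note: peak tail current of the secondary pulse compared with the same well before compound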
- Sequence (Q12809 whole entry, looked up): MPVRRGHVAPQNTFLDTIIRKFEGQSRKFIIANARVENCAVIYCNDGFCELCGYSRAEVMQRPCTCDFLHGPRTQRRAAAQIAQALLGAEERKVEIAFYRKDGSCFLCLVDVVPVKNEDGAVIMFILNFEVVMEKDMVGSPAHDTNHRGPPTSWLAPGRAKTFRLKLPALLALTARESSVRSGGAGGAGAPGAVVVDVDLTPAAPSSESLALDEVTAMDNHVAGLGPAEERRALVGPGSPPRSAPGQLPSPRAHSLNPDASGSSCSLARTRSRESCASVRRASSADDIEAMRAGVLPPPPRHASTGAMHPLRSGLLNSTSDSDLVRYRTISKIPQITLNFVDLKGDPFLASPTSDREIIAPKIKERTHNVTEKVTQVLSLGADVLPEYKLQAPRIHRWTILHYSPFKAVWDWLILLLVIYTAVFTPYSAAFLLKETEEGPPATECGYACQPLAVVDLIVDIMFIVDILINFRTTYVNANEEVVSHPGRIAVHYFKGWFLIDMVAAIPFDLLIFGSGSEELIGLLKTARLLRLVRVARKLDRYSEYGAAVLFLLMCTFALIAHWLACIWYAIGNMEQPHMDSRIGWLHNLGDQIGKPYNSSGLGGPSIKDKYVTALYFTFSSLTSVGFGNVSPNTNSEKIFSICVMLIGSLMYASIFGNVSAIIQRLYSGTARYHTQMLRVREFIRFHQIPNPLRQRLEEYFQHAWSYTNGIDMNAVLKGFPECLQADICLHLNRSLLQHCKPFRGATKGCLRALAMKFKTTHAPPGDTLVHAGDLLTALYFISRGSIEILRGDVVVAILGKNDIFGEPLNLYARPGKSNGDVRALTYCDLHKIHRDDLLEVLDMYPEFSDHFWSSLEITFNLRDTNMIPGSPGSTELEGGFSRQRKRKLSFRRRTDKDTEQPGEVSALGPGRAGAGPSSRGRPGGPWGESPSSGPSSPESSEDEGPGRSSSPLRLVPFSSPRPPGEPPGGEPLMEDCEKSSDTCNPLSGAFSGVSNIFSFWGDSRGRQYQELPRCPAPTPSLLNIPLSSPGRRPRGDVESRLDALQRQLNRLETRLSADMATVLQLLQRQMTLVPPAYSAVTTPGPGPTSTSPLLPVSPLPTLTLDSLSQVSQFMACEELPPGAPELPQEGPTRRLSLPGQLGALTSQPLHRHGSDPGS
- Assay Remarks: primary screen, population patch clamp on CHO cells stably expressing hERG; higher = less effect of the substance
In all, about 310,000 compounds went through this assay and about 14,000 (4.5%) showed an effect of 50% or more. Effects have a minus sign here. This is one part of a sample in which strong results are shown more often than they occur.
Measure: hERG current change (%, negative = inhibition) at 10uM (%)

# Molecule, Endpoint Unit, Measured
rows = [
    ("COCCNc1nnc(SCC(=O)Nc2cc(-c3ccccc3)nn2-c2ccccc2)s1", "%", -50.9),
    ("O=C(CCCN1C(=O)NC2(CCCC2)C1=O)N1CCN(S(=O)(=O)c2ccccc2)CC1", "%", 0.403),
    ("COc1ccc(C(C)=O)cc1CN1C(=O)NC2(CCCCCC2)C1=O", "%", -3.9),
    ("COCCNc1nnc(SCC(=O)Nc2nnc(-c3ccccc3)o2)s1", "%", 21.8),
    ("CN(CC(=O)Nc1ccccc1Br)C(=O)CN1CCN(Cc2ccc(Cl)cc2)CC1", "%", -66.9),
    ("CCOc1ccc(C(=O)N(C)C2CCS(=O)(=O)C2)cc1 (stereo not shown)", "%", 18.3),
    ("Cc1ccc2nc(Nc3ccc(C)c(C)c3)c3nncn3c2c1", "%", 14.5),
    ("CCOc1ccc(NC(=O)CN(C)C(=O)C2CCN(C(=O)c3ccc(Cl)cc3)CC2)cc1OCC", "%", -48.1),
    ("Cc1ccc(C(=O)OCC(=O)Nc2cc(C(C)(C)C)nn2-c2ccccc2)c(O)c1", "%", -8.07),
    ("CCOc1ccc(N2C(=O)CC(NCCc3c[nH]c4ccccc34)C2=O)cc1 (stereo not shown)", "%", 1.45),
    ("Cc1cc(Br)ccc1NC(=O)CN(C)C(=O)C1CCN(C(=O)c2ccc(F)cc2)CC1", "%", -65.1),
    ("CCCc1ccc2oc(C(=O)N3CCN(C4CCS(=O)(=O)C4)CC3)c(C)c2c1 (stereo not shown)", "%", -51.3),
    ("COCCCn1c(=O)/c(=C\\c2ccccc2OC(F)F)s/c1=C(/C#N)C(=O)NCCOC", "%", -11.5),
    ("Cc1ccc(OCC(=O)N2CCC(N3CC(C)CC(C)C3)CC2)cc1 (stereo not shown)", "%", -45.5),
    ("CC(=O)NC(CC(=O)Nc1nc(-c2ccccc2)c(C(C)=O)s1)c1ccccc1 (stereo not shown)", "%", -44.4),
    ("CCn1ncc(/C=N\\NC(=O)c2cc(-c3ccc(C)cc3C)nc3ccccc23)c1C", "%", -8.84),
    ("CN(CC(=O)Nc1cccc(F)c1)C(=O)C1CCN(C(=O)c2ccc(Cl)cc2)CC1", "%", -55.5),
    ("CCCc1ccc2oc(C(=O)N3CCC(O)CC3)c(C)c2c1", "%", -12.2),
    ("CN(CC(=O)Nc1ccccc1C(F)(F)F)C(=O)C1CCN(C(=O)c2ccc(Cl)cc2)CC1", "%", -31.8),
]

----------
- Target Under Test: human ether-à-go-go-related gene (hERG) potassium channel (human, UniProt Q12809);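 note: peak tail current of the secondary pulse compared with the same well before compound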
- Assay Remarks: primary screen, population patch clamp on CHO cells stably expressing hERG; higher = less effect of the substance
In all, about 310,000 compounds went through this assay and about 14,000 (4.5%) showed an effect of 50% or more. The effect is printed as a negative number. Many of the other results were omitted from the sample, so strong results are more common in it than they were.
Measure: hERG current change (%, negative = inhibition) at 10uM (%)

# Compound, Endpoint Unit, Measured
measured = [
    ("Cc1nn(-c2ccccc2)c(Cl)c1/C=N/NC(=O)c1ccccc1F", "%", 14.6),
    ("COc1ccc(-c2nc(NC(=O)C3CC(=O)N(Cc4ccco4)C3)sc2C)cc1 (stereo not shown)", "%", -34.3),
    ("Cc1ccc(-c2csc(NC(=O)C3CC(=O)N(Cc4ccco4)C3)n2)cc1 (stereo not shown)", "%", -25.5),
    ("c1ccc(C2=Nc3cccnc3C(c3ccccc3)=NN2)cc1", "%", 15.9),
    ("CCC1CCCCN1Cc1ccc(OC)c(C)c1C (stereo not shown)", "%", -31.2),
    ("O=c1[nH]c2ccccc2nc1CCc1ccccc1", "%", 35.5),
    ("COc1ccc(-c2csc(NC(=O)C3CC(=O)N(Cc4ccco4)C3)n2)cc1 (stereo not shown)", "%", -70.4),
    ("CCCCC1=CC2=CC(=O)C(C)(OC(=O)CC)C(=O)C2=CN1c1ccccc1 (stereo not shown)", "%", 1.5),
    ("O=C(C1CCN(S(=O)(=O)c2cccc3cccnc23)CC1)N1CCN(C2CCCCC2)CC1", "%", -0.647),
    ("NC12CC3CC(C1)CC(CO)(C3)O2", "%", 8.54),
]

----------
- Target Under Test: human ether-à-go-go-related gene (hERG) potassium channel (human);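 note: peak tail current of the secondary pulse compared with the same well before compound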
- Assay Remarks: primary screen, population patch clamp on CHO cells stably expressing hERG; higher = less effect of the substance
About 14,000 (4.5%) of roughly 310,000 compounds showed an effect of 50% or more. Effects have a minus sign here. The full list was thinned out, with strong results kept by preference.
Measure: hERG current change (%, negative = inhibition) at 10uM (%)

# Molecule, Measured
measured = [
    ("O=C(c1cc2ccccc2oc1=O)N(c1ccccc1)C1C=CS(=O)(=O)C1 (centres unmarked)", 2.29),
    ("CN(C1CCCCC1)S(=O)(=O)c1ccccc1", -7.01),
    ("O=C(NCCNC(=O)c1ccccc1Br)c1ccccc1Br", 8.51),
    ("C/C(=N\\Nc1ccccc1)c1c(O)n(Cc2ccccc2)c(=O)[nH]c1=O", 8.42),
    ("COc1cc(OC)c(C2N(c3ccccn3)C(=O)C3CCCN32)cc1OC (centres unmarked)", 13.8),
    ("Cc1ccc(C)c(S(=O)(=O)N2CCCOC2CNC(=O)C(=O)NCCCN2CCOCC2)c1 (centres unmarked)", 0.752),
    ("Cc1ccccc1C(=O)NC(C(N)=O)P(=O)(OC(C)C)OC(C)C (centres unmarked)", -55.2),
    ("O=C(CSc1nnc(Cc2ccccc2)o1)Nc1ccc2c(c1)OCO2", 10.5),
    ("COC(=O)c1[nH]c2ccc(C)cc2c1NC(=O)CN1CCN(c2ccc(F)cc2)CC1", -1.02),
    ("Clc1ccc(-c2noc(/C=C/c3ccccc3)n2)cc1", 18.2),
    ("CCCNC(=S)N1CCC(C(=O)c2ccc3c(c2)OCCO3)CC1", -28.9),
    ("CC(C)OP(=O)(OC(C)C)C(NC(=O)c1ccccc1)C(N)=O (centres unmarked)", -3.65),
    ("CCn1c(SCC(=O)Nc2ccc(NC(C)=O)cc2)nc2c1c(=O)n(C)c(=O)n2C", 24.7),
    ("CCN(CCn1cccn1)C(=O)c1cc(COc2ccc(F)c(F)c2)on1", -96),
    ("CC(=O)Oc1cc2c(cc1Cl)C(c1cccs1)CC1(CC(C)(C)NC(=S)N1)O2 (centres unmarked)", 9.77),
    ("Cc1cc(=O)oc2cc(NC(=O)c3ccccc3Cl)ccc12", 28),
    ("CCN(CC(=O)Nc1c(C(=O)OC)[nH]c2ccc(C)cc12)c1ccc2c(c1)OCO2", 2.19),
    ("COc1ccc(S(=O)(=O)N2CCCOC2CNC(=O)C(=O)NCc2ccco2)cc1 (centres unmarked)", -22),
    ("CCN(CCn1cccn1)C(=O)c1cc(COc2ccc(F)cc2Cl)on1", -15.4),
    ("CCN(CCn1cccn1)C(=O)c1cc(COc2c(F)cccc2F)on1", 0.76),
]

----------
- Target Under Test: human ether-à-go-go-related gene (hERG) potassium channel (human, UniProt Q12809);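 note: peak tail current of the secondary pulse compared with the same well before compound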
- Assay Remarks: primary screen, population patch clamp on CHO cells stably expressing hERG; higher = less effect of the substance
The whole screen tested about 310,000 compounds, of which about 14,000 (4.5%) showed an effect of 50% or more. Effects have a minus sign here. This excerpt belongs to a sample that is enriched for strong results.
Assign 1 whenever hERG current change (%, negative = inhibition) at 10uM does not fall below -20%; assign -1 whenever it does.

# Compound, Qualitative Label
data = [
    ("CCOc1cccc(OCCOCCN(C)Cc2ccccc2)c1", -1),
    ("Cc1ccc(NC(=O)CSc2nnc(CNC(=O)c3c(F)cccc3Cl)o2)cc1", 1),
    ("Cc1ccc(-c2nc(Nc3cccc(O)c3)c3ccccc3n2)cc1", 1),
    ("O=C(ONC1=NCCCCC1)c1cccc([N+](=O)[O-])c1", 1),
    ("Oc1ccccc1OCc1nc2ccccc2s1", 1),
    ("Cc1cccc(-c2nc(Nc3cccc(O)c3)c3ccccc3n2)c1", 1),
    ("CC(C)n1cc(C(=O)N2CCCC(N3CCN(c4ccc(F)cc4)CC3)C2)cn1 (stereo not shown)", -1),
    ("CC(=O)N1CCCN(Cc2cn(-c3ccc(C)cc3)nc2-c2cccc(C)c2)CC1", -1),
    ("COc1ccccc1OCC(=O)N/N=C1/C=C(C)CC1", 1),
    ("Cc1ccc(-n2cc(CN(C)CCc3cn[nH]c3)c(-c3cccc(C)c3)n2)cc1", -1),
    ("O=C(NCCc1cccc(C(F)(F)F)c1)C1CCC(=O)N(C2CC2)C1 (stereo not shown)", 1),
    ("O=C(C[n+]1ccc(C(=O)c2ccccc2)cc1)Nc1ccc(C(F)(F)F)cc1.[Cl-]", 1),
    ("Cc1ccc(C)c(-n2cc(CNC(C)Cn3cncn3)c(-c3ccccc3)n2)c1 (stereo not shown)", -1),
    ("Cc1cc(NC(=O)/C=C/c2ccccc2)c(C(C)C)cc1O", 1),
    ("O=c1[nH]c(=S)n(C2CC2)c(O)c1C=Nc1cccc(C(F)(F)F)c1", 1),
    ("Cc1cccc(-n2cc(CNCCN3CCOC3=O)c(-c3cccc(F)c3)n2)c1", 1),
    ("COc1ccc(S(=O)(=O)Nc2ccc(C(F)(F)F)cc2)cc1OC", 1),
    ("O=C(c1ccoc1)N1CCCC(N2CCN(c3ccc(F)cc3)CC2)C1 (stereo not shown)", -1),
    ("O=C(NCc1ccc2c(c1)OCO2)Nc1ccc(Cl)cc1", 1),
    ("CCOC(=O)C1CCCN(C(=O)CS(=O)(=O)Cc2ccccc2)C1 (stereo not shown)", 1),
    ("Cc1ccc2nc3c(c(C(=O)O)c2c1)CCC3", 1),
    ("Cc1ccc2nc3c(c(Nc4ccc(O)cc4)c2c1)CCC3.Cl", -1),
    ("Cc1ccc(-n2cc(CNC(C)c3cnn(C)c3)c(-c3ccc(F)cc3)n2)cc1 (stereo not shown)", -1),
    ("CC(=O)c1ccc(C(=O)N2CCCC(N3CCN(c4ccc(F)cc4)CC3)C2)s1 (stereo not shown)", -1),
    ("O=C(C1CCOCC1)N1CCCC(N2CCN(c3ccc(F)cc3)CC2)C1 (stereo not shown)", 1),
    ("Cc1ccc(-n2cc(CN3CCNC(=O)CC3)c(-c3cccc(C)c3)n2)cc1", 1),
    ("Cc1ccc2nc3c(c(Nc4cccc(O)c4)c2c1)CCC3.Cl", -1),
    ("CN(CC(=O)NCC1CCCCC1)CC(=O)Nc1ccccc1Br", -1),
    ("COc1ccc2nc3c(c(-c4ccccc4)c2c1)CCC3", 1),
    ("CN(CC1CCN(CCc2cccc(C(F)(F)F)c2)CC1)C(=O)c1ccc(F)cc1F", -1),
    ("COc1ccc(Nc2c3c(nc4ccc(C)cc24)CCC3)cc1.Cl", -1),
    ("O=C(c1cccs1)N1CCCC(N2CCN(c3ccc(F)cc3)CC2)C1 (stereo not shown)", -1),
    ("O=C(c1ccncc1)N1CCCC(N2CCN(c3ccc(F)cc3)CC2)C1 (stereo not shown)", -1),
    ("COC(=O)c1ccc(COc2ccccc2/C=C/C(=O)c2ccc(OCC(=O)O)cc2)cc1", 1),
    ("CN(Cc1cccc(C(F)(F)F)c1)C(=O)C1CCC(=O)N(CC2CCCCC2)C1 (stereo not shown)", 1),
    ("Cc1ccc(CO/N=C/C2=C(Cl)c3ccccc3CC2)cc1", 1),
    ("Cn1c(C(=O)NCc2ccccn2)cc2c(=O)n3ccccc3nc21", 1),
    ("CCN1C[C@]2(C)CC[C@H](OC)[C@]34C2[C@H](OC(C)=O)[C@@]2(OCO[C@@]25C[C@H](OC)[C@H]2C[C@]3(O)C5[C@H]2OC)[C@@H]14", 1),
    ("CC(=O)c1cc(C#N)c(Oc2ccc(F)cc2)nc1C", 1),
    ("CC1=C/C(=N\\NC(=O)c2ccc(O)cc2)CC1", 1),
]
